- test.name: blockers of mitochondrial fusion, WT vs mutant – cell-based, chemical genetic, wild-type and mutant, confirmation (AID 1361)
- particulars: Cell-based mitochondrial fusion phenotype, imaging, WT cells
Activity calls are given as the source filed them. No rule for the calls is given here.

molecule | IC50
COc1ccc(OCCC(=O)N2CCCCC2)cc1 | > 25 µM (inactive)
CCCCN(CCCC)CCNC(=O)Cc1nc2c(c(=O)[nH]c(=O)n2C)n1C | > 25 µM (inactive)
CCCC(=O)NC(=S)Nc1cccc(Cl)c1N1CCCCC1 | 22.5 µM
CC(=O)Nc1ccc(S(=O)(=O)N2CCN(C)CC2)cc1 | > 25 µM (inactive)
Cn1c(Oc2ccc3c(c2)OCO3)nc2c1c(=O)n(Cc1ccccc1)c(=O)n2C | > 25 µM (inactive)
C=CCOc1c(Br)cc(/C=N/Nc2ccc(C(=O)O)cc2)cc1OCC | 22.1 µM
Cc1ccccc1COC(=O)c1nn(-c2ccccc2)nc1N | > 25 µM (inactive)
COCCNC(=S)N(CCc1c(C)[nH]c2ccc(Cl)cc12)Cc1cccs1 | 8.8 µM
CCOc1ccccc1N1CCN(C(=O)c2ccc3[nH]c4c(c3c2)CCCC4)CC1 | 17.1 µM
Cc1cccc(-n2c(CCc3ccccc3)nnc2SCC(=O)c2ccccc2)c1 | 20.6 µM
O=C(c1cc(-c2ccccc2)nc2ccccc12)N1CCCc2ccccc21 | 13.7 µM
Cc1cc(NC(=O)COC(=O)C(Nc2ccc(C(F)(F)F)cc2Cl)C(C)C)no1 (configuration not stated) | 13.8 µM
Cn1c(/C=C/N2CCOCC2)c(C(=O)c2ccc(Br)cc2)c(=O)n(C)c1=O | > 25 µM (inactive)
CCOC(=O)C1=C(C)NC(SC(C)=O)=NC1c1ccc(OC(C)=O)c(OC)c1 (configuration not stated) | > 25 µM (inactive)
CC1CC1C(=O)OCC(=O)NCc1ccc(Cl)cc1Cl (configuration not stated) | > 25 µM (inactive)
CCCCC(c1nnnn1CC1CCCO1)N1CCN(c2cc(Cl)ccc2C)CC1 (configuration not stated) | 21.6 µM
Clc1ccc2c(c1)C(c1ccccc1Cl)=NCc1nnc(N3CCN(CCOc4ccccc4)CC3)n1-2 | 23.7 µM
Cc1nc(=O)c(-c2ccccc2)c(C)n1CCCCCC(=O)O | > 25 µM (inactive)
COC(=O)C1C(=O)NCC1c1ccccc1 (configuration not stated) | > 25 µM (inactive)
CCOc1ccc(C(=O)C(CCC(CN(C)C)C(=O)c2ccc(OCC)cc2)CN(C)C)cc1 (configuration not stated) | 20.4 µM
CCCC12CN3CCN(CC(C3)/C1=N\NC(=O)c1ccc(C(C)(C)C)cc1)C2 | 6.28 µM
COc1ccc(OC)c(C(=O)c2coc3ccc(OC)cc23)c1 | > 25 µM (inactive)

* * *

- test.name: blockers of mitochondrial fusion, WT vs mutant – cell-based, chemical genetic, wild-type and mutant, confirmation (AID 1361)
- particulars: Cell-based mitochondrial fusion phenotype, imaging, WT cells
The source made the active and inactive calls. The rule behind the calls is not given here.
metric.name: IC50

compound | value.measured
CN(C(=S)Nc1ccc(SC(F)F)cc1)c1ccc(O)cc1 | > 25 µM (inactive)
COC(=O)CNC(c1ccccc1)c1cc(C)ccc1NC(=O)c1cccc(Cl)c1 (centres undefined) | 9.38 µM
CCS(=O)(=O)Nc1ccc(-c2cc(-c3ccccc3)c3cc(C)ccc3n2)cc1 | 7.26 µM
CCn1c(C(=O)N2CCc3ccccc3C2)cc2oc3ccccc3c21 | 8.84 µM
Cc1ccccc1N1CCN(c2ncnc3scc(-c4cccs4)c23)CC1 | 9.75 µM
CCCCCCOC1(c2ccccc2)OC(=O)c2ccccc21 (centres undefined) | 17 µM
CC1(C)CC(=O)C(C=Nc2ccc3[nH]ncc3c2)=C(O)C1 | > 25 µM (inactive)
c1n[nH]c(NCc2ccc3c(c2)OCO3)n1 | > 25 µM (inactive)
CCC(C)(C)c1ccc2c(c1)C(=O)c1ccccc1C2=O | 18.6 µM
CC1CCC(C(C)C)C(OC(=O)COC(=O)c2ccccc2N)C1 (centres undefined) | 17.9 µM
CC1CN(c2oc(Cc3cccc4ccccc34)nc2C#N)CC(C)O1 (centres undefined) | > 25 µM (inactive)
CCCCCOc1ccc(CSCCNC(=S)Nc2ccccc2)cc1 | 5.86 µM
CC(=O)Cc1nsc(NC(=O)c2ccc(-c3ccc(Cl)c(Cl)c3)o2)n1 | > 25 µM (inactive)
Cc1ccc(-c2cc(-c3ccccc3)c(C#N)c(N)n2)o1 | > 25 µM (inactive)
Cc1cccc(N2CCN(C(=O)COc3ccc4c(c3)CCC4)CC2)c1C | 14.8 µM
CCCNC(=O)c1ccccc1NC(=O)CSCc1ccc(OC)cc1 | > 25 µM (inactive)
CCOC(=O)c1cnc(SC)nc1Sc1cc(Cl)ccc1Cl | 11.2 µM
c1ccc(CC2CCN(c3nnnn3-c3ccccc3)CC2)cc1 | > 25 µM (inactive)
Cc1cc(NC(=S)N(Cc2ccc(Cl)cc2)Cc2ccc(C(=O)O)cc2)ccc1Cl | 17.6 µM
CCOC(=O)C1=CN(c2cccc(F)c2)C=C(C(=O)OCC)C1c1cc(OC)c(O)c([N+](=O)[O-])c1 | 5.68 µM
CCOC(=O)c1c(NC(=O)OC)sc(C(=O)N(C)C)c1C | > 25 µM (inactive)
O=C1CC(C(=O)NCc2ccccc2)C2(CCCC2)O1 (centres undefined) | > 25 µM (inactive)
Cc1ccc(-c2nn(-c3ccccc3)cc2CSC(=N)N)cc1 | > 25 µM (inactive)
CCOc1ccc(NC(=O)CSc2nnc(-c3ccco3)n2C)cc1 | > 25 µM (inactive)
CCOC(=O)c1c(C)[nH]c(C)c1C(=O)CSc1nnc(-c2ccncc2)n1C | > 25 µM (inactive)
O=C(CN1CCN(c2ccccn2)CC1)N1c2ccccc2Sc2ccc(C(F)(F)F)cc21 | 16 µM
COc1cccc(-c2cnc(OC(C)(C)C)nc2OC(C)(C)C)c1 | 24 µM
COC(=O)C1=C(O)C(C(=O)OC)C(c2ccc(C)cc2)C(C#N)(C#N)C1c1ccc(C)cc1 (centres undefined) | 4.71 µM
COc1cc(NC(=S)NCCC(c2ccccc2)c2ccccc2)cc(OC)c1 | 4.78 µM
O=C(N/N=C/c1c[nH]c2ccccc12)C1CC1(c1ccccc1)c1ccccc1 (centres undefined) | > 25 µM (inactive)
O=C1C(Cl)=C(NC2CCCCC2)C(=O)N1Cc1ccccc1 | 19.1 µM
Clc1ccc(CNc2nc(CN3CCOCC3)nc3scc(-c4ccccc4)c23)cc1 | 13.2 µM
O=C(N/N=C/c1c[nH]c2ccccc12)c1[nH]c2ccc(Br)cc2c1-c1ccccc1 | 3.58 µM
CCn1c(CCCOc2ccc(Cl)cc2Cl)nnc1SCC(=O)Nc1cc(F)ccc1C | 15.9 µM
c1ccc(-c2csc3ncnc(N4CCc5ccccc5C4)c23)cc1 | 9.44 µM
Cc1[nH]c2ccccc2c1/C=N/NC(=O)C1CC1(c1ccccc1)c1ccccc1 (centres undefined) | 7.93 µM
Cc1ccc(NNC(=O)C(O)(c2cccc(C(F)(F)F)c2)c2cccc(C(F)(F)F)c2)cc1 | 22.3 µM
O=S(=O)(Nc1ccc(O)c(Sc2nc3ccccc3s2)c1)c1cccc2ccccc12 | 10.8 µM
CC(C)(C)CC(C)(C)NC(=O)Nc1cccc([N+](=O)[O-])c1 | > 25 µM (inactive)
O=[N+]([O-])c1cc(C(F)(F)F)ccc1NCCc1c[nH]c2ccccc12 | 13.4 µM
O=C(c1ccccc1)c1nnc(-c2ccncc2)o1 | > 25 µM (inactive)
Cc1ccccc1/C(N)=N/OC(=O)N1c2ccccc2Sc2ccccc21 | 16.6 µM
Cc1ccc(/C=N/n2cnc3sc(-c4ccccc4)cc3c2=O)o1 | > 25 µM (inactive)
C(=N\Nc1nc(Nc2ccccc2)nc(N2CCCCC2)n1)/c1ccco1 | 22.5 µM
